Test Target: HCV NS3/4A protease complex, BMS strain (UniProt P27958, species not given/STRAIN_BMS)
Construct: said of H77 and J4L6S, not expressly of BMS; fused on or other part: A three-lysine solubilising tail at the NS4A C-terminus and purification on Ni-NTA are described for the H77 and J4L6S constructs
Sequence (P27958 1027-1657, change not shown, one chain of several): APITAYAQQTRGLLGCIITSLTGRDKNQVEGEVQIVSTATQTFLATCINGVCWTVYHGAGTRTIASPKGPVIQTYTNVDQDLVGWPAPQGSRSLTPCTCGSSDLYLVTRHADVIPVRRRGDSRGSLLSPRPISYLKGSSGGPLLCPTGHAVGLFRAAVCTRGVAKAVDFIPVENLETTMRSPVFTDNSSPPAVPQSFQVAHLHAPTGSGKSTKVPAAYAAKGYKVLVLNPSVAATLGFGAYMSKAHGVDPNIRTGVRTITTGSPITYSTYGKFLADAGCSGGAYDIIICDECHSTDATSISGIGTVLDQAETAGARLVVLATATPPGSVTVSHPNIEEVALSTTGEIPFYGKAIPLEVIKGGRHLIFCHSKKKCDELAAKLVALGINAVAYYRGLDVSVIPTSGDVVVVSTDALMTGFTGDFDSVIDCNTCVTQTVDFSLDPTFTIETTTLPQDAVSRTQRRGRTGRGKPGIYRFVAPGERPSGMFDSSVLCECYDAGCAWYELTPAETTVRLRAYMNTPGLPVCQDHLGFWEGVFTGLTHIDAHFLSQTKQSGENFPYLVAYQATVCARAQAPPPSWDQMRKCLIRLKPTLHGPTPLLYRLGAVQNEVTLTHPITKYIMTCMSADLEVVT
Test Method Notes: FRET peptide assay to monitor HCV NS3/4A proteolytic activity (BMS strain)
Type: biochemical, HCV genotype 1a
Measurement Setup: BMS strain; read-out: IC50 against the NS3/4A BMS strain in the enzyme assay
Quantity Kind: IC50 (nM)

C=C[C@@H]1C[C@]1(NC(=O)[C@@H]1C[C@@](O)(c2ccc(-c3ccccc3)cc2)CN1C(=O)[C@@H](NC(=O)OC(C)(C)C)C(C)(C)C)C(=O)NS(=O)(=O)C1CC1 = 4
